The following compounds are shown together with reported p21 (RP3) values.
Test system: p21 promoter-luciferase construct in HeLa cells
Experiment: p21 reporter gene induction
Assay type: cell-based
Conditions: relative induction potency compared with SNDX-275 at 3 micromolar
Remember to put the unit after the number in your answer.

| COMPOUND | TARGET_OF_ASSAY | ENDPOINT_NAME | ENDPOINT_VALUE |
| --- | --- | --- | --- |
| CCN(CCO)C1CCN(C(C(=O)Nc2ccc(Br)cc2)c2ccc(/C=C/C(=O)Nc3ccccc3N)cc2)C1 (stereo not shown) | p21 promoter-luciferase construct in HeLa cells | p21 (RP3) | 293% |
| CCN(CC)C1CCN(C(C(=O)Nc2ccc(F)cc2)c2ccc(/C=C/C(=O)Nc3ccccc3N)cc2)C1 (stereo not shown) | p21 promoter-luciferase construct in HeLa cells | p21 (RP3) | 163% |
| CCN(CC)C1CCN(C(C(=O)Nc2ccc(Cl)cc2)c2ccc(/C=C/C(=O)Nc3ccccc3N)cc2)C1 (stereo not shown) | p21 promoter-luciferase construct in HeLa cells | p21 (RP3) | 187% |
| CCN(CC)C1CCN(C(C(=O)Nc2ccc(C(F)(F)F)cc2)c2ccc(/C=C/C(=O)Nc3ccccc3N)cc2)C1 (stereo not shown) | p21 promoter-luciferase construct in HeLa cells | p21 (RP3) | 230% |
| Nc1ccccc1NC(=O)/C=C/c1ccc(C(C(=O)Nc2ccc(Br)cc2)N2CCC(N3CCCCC3)C2)cc1 (stereo not shown) | p21 promoter-luciferase construct in HeLa cells | p21 (RP3) | 338% |

Using the record for CN(C)[C@@H]1CCN(C(C(=O)Nc2ccc(C(F)(F)F)cc2)c2ccc(/C=C/C(=O)Nc3ccccc3N)cc2)C1 (stereo partly shown) , report its p21 (RP3). 216%

What value of p21 (RP3) has been recorded for this entry: CCN(CC)C1CCN(C(C(=O)Nc2ccc(C#N)cc2)c2ccc(/C=C/C(=O)Nc3ccccc3N)cc2)C1 (stereo not shown) 157%

###

Reported p21/klf2 (RP3) values for the following molecules.
Tested on: klf2 promoter-luciferase construct in A204 cells
Experiment: klf2 reporter gene induction (p21 versus klf2 selectivity)
Assay type: cell-based
Conditions: relative selectivity at 3 micromolar compared with SNDX-275 (p21/klf2 ratio defined as 1.0)
Please state the value as a number alone, without comment.

The cases that follow already have their p21/klf2 (RP3) on record.
| MOLECULE | TARGET_OF_ASSAY | p21/klf2 (RP3) |
| --- | --- | --- |
| CCN(CC)C1CCN(C(C(=O)Nc2ccc(F)cc2)c2ccc(/C=C/C(=O)Nc3ccccc3N)cc2)C1 (stereo not drawn) | klf2 promoter-luciferase construct in A204 cells | 0.7 |
| CCN(CCO)C1CCN(C(C(=O)Nc2ccc(Br)cc2)c2ccc(/C=C/C(=O)Nc3ccccc3N)cc2)C1 (stereo not drawn) | klf2 promoter-luciferase construct in A204 cells | 1.2 |

Param item = CCN(CC)C1CCN(C(C(=O)Nc2ccc(Cl)cc2)c2ccc(/C=C/C(=O)Nc3ccccc3N)cc2)C1 (stereo not drawn) ; retrieve measured p21/klf2 (RP3). 0.8

###

Test system: histone deacetylase (HeLa nuclear extract)
Assay: HeLa extract HDAC fluorometric assay
Assay type: biochemical
Details: relative inhibitory potency compared with SNDX-275 at 30 micromolar
ENDPOINT_NAME: HD (RP30) (%)
Express your answer in %, writing the number without its unit.

Previously resolved entries follow.
| COMPOUND | MEASURE_UNIT | HD (RP30) |
| --- | --- | --- |
| CCN(CC)C1CCN(C(C(=O)Nc2ccc(C(F)(F)F)cc2)c2ccc(/C=C/C(=O)Nc3ccccc3N)cc2)C1 (stereo not shown) | % | 183 |
| CCN(CC)C1CCN(C(C(=O)Nc2ccc(F)cc2)c2ccc(/C=C/C(=O)Nc3ccccc3N)cc2)C1 (stereo not shown) | % | 164 |
| CCN(CC)C1CCN(C(C(=O)Nc2ccc(Cl)cc2)c2ccc(/C=C/C(=O)Nc3ccccc3N)cc2)C1 (stereo not shown) | % | 163 |
| CCN(CCO)C1CCN(C(C(=O)Nc2ccc(Br)cc2)c2ccc(/C=C/C(=O)Nc3ccccc3N)cc2)C1 (stereo not shown) | % | 144 |
| CCN(CC)C1CCN(C(C(=O)Nc2ccc(C#N)cc2)c2ccc(/C=C/C(=O)Nc3ccccc3N)cc2)C1 (stereo not shown) | % | 159 |

Item Nc1ccccc1NC(=O)/C=C/c1ccc(C(C(=O)Nc2ccc(Br)cc2)N2CCC(N3CCCCC3)C2)cc1 (stereo not shown) has what recorded HD (RP30)? 111

// lookup HD (RP30) for CN(C)[C@@H]1CCN(C(C(=O)Nc2ccc(C(F)(F)F)cc2)c2ccc(/C=C/C(=O)Nc3ccccc3N)cc2)C1 (stereo partly shown) 175
